Target: Aldehyde dehydrogenase 1A1 (Homo sapiens)
Assay: qHTS Assay for Inhibitors of Aldehyde Dehydrogenase 1 (ALDH1A1)
Details: Purified ALDH1A1, NADH fluorescence, propionaldehyde substrate; series mostly up to 75.3 µM
Hit rate of the full screen: of about 220,000 compounds, about 16,000 (7.3%) were called active. About 25% were inconclusive and are not listed. Calls follow the shape of the dose curve; as a rule, active = well fitted inhibition curve with a large enough effect (not every such curve was filed as active); inconclusive = small, poorly fitted or top-dose-only effect, or another doubt; inactive = no such curve, though single readings can be large or run the other way. Many of the other results were omitted from the sample, so actives are more common in it than they were.
Your answer must be one of the following: active, inactive

Reference set (6 entries):
compound: COc1ccc(-c2c(C)cc3oc(=O)cc(-c4ccccc4)c3c2C)cc1F
class-assignment: inactive
//
compound: COc1cccc(/C=C2\SC(=N)N(c3ccc(F)cc3)C2=O)c1
class-assignment: inactive
//
compound: Cc1ccc(N2C(=O)C3CC3C2=O)cc1 (stereo unspecified)
class-assignment: inactive
//
compound: COc1ccc(N2C(=O)CC(Sc3n[nH]c(-c4ccc(C)cc4)n3)C2=O)cc1 (stereo unspecified)
class-assignment: active
//
compound: Cc1cc2oc(=O)cc(-c3ccccc3)c2c(C)c1-c1ccc(OC(F)(F)F)cc1
class-assignment: inactive
//
compound: Cc1ccc(S(=O)(=O)CC(=O)Nc2c(C)n(C)n(-c3ccccc3)c2=O)cc1
class-assignment: inactive

Q: Recorded test outcome, item `Cc1nn(C(=O)c2ccoc2C)c(N)c1-c1ccccc1`
Ans: inactive
